The entries below pair molecules with pIC50 values for human HIF-PHD2 (Homo sapiens, UniProt Q9GZT9), as found in several publications.
Lab note: report pIC50 as minus log10 of the concentration in molar units, number only.

Examples with answers:
Field pIC50 (entry O=C(O)CNC(=O)c1c(O)c2c(n(-c3ccc(-c4ccc(OC(F)(F)F)cc4)cc3)c1=O)CSC2 ) reads 8.00

Query O=C(O)CNC(=O)c1c(O)c2c(n(Cc3ccc(F)cc3)c1=O)COCC2 yields pIC50 of 7.53

Lab book: pIC50 of O=C(O)c1cnn(-c2nc(O)c3c(cnn3C[C@H]3CCN(c4cccc(Cl)c4)C3)n2)c1 noted as 7.72

From here, focus on the item given below.
Briefly, pIC50 measured for O=C(O)c1cnn(-c2nc(O)c3c(cnn3CC3CCC4(CC3)CC4)n2)c1 : 7.64
